Reference source for all entries: BindingDB's records for PubMed 34154424

# measurement target: Mitogen-activated protein kinase kinase kinase 7, TAK1 kinase (Homo sapiens)
# test details: Inhibition of Tak1 (unknown origin) by competition binding assay
assay metric: IC50

Per the records, this compound ( C[C@H]1CC(=O)Nc2cc(C(=O)NCCC3CC3)ccc2N1C(=O)N1CC2CC2C1 (stereo partly specified) ) has IC50 equal to > 2 nM

* * *

# measurement target: Tyrosine-protein kinase Fyn (Homo sapiens)
pIC50: −log10 of the molar value.
assay metric: pIC50

Per the records, this molecule ( C[C@H]1CC(=O)Nc2cc(C(=O)NCCC3CC3)ccc2N1C(=O)N1CC2CC2C1 (stereo partly specified) ) has pIC50 equal to < 8.24
